TARGET: T1, truncated cTfR1 of SEQ ID NO:123 (cynomolgus monkey, UniProt Q5RDH6 122-760 (Pongo abelii entry))
T1 construct: also called cynomolgus TfR1
T1 chain: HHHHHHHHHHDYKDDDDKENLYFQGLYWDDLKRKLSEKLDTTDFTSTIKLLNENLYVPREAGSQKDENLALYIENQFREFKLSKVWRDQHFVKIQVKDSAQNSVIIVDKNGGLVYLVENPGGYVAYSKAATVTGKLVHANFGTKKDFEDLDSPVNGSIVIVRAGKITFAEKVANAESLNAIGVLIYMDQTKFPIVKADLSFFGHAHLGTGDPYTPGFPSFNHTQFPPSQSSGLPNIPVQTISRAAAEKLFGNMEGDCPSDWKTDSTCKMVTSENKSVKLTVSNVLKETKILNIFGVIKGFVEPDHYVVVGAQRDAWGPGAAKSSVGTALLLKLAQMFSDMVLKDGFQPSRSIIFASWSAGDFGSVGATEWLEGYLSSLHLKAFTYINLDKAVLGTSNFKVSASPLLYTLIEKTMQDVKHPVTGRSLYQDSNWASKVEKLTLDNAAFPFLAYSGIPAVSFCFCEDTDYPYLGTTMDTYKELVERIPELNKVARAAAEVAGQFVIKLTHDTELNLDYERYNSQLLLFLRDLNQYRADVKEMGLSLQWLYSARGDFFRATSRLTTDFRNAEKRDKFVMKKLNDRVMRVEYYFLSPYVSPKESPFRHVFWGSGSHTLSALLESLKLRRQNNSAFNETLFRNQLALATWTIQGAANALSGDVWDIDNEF
ASSAY_NOTES: SPR, FLAG-captured TfR1, scFv injected, 1:1 fit
METRIC: koff (s⁻¹)

- BINDER: "h26D3 HC6 DS S122K (scFv, also called h26D3 DS S122K) scFv: HHHHHHGGGGSGGGGSGGGGSGGGGSDIQMTQSPSSVSASVGDRVTITCKSSQSLLYSTNQKNYLAWYQQKPGKAPKLLIYWASTRESGVPSRFSGSGSGTDFTLTISSLQPEDFATYYCQQYFIYPRTFGCGTKVEIKGGGGSGGGGSGGGGSGGGGSEVQLVQSGAEVKKPGSSVKVSCKASGYIFTDYNMDWVRQAPGQCLEWIGDINPDADTTSYNEKFKGRATLTVDKSTSTAYMELSSLRSEDTAVYYCARGGYSGSSYYHPMDYWGQGTLVTVKS"
  METRIC: "koff"
  REPORTED: 0.0103
